Assay info: chemical genetic growth profiling, strain panel (AID 1159580);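 note: tested at 20 µM; growth read once vehicle control cultures reached saturation at 30 °C; 1 = growth at the plate median or of vehicle wells; lower values mean less growth of the strain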
Study conditions: S. cerevisiae deletion strains, growth OD, locus YBR009C, strain hhf1, hits give low values
The whole screen tested about 5,500 compounds, of which about 2,000 (36%) were called active. About 18% were inconclusive and are not listed. Some of the results follow.
Observable: normalized growth
Enter a number only.

Example cases with answers are listed next.
CCC(C)C(=O)OC1[C@@H]2CC3=C4CC(=O)O[C@@H](c5ccoc5)[C@]4(C)CCC3[C@@](C)(C2=O)[C@@H](CC(=O)OC)C1(C)C (stereo partly drawn) | 1.01
CC(N=C(NC#N)Nc1ccncc1)C(C)(C)C (stereo not drawn) | 1.01

Problem: Could you tell me which normalized growth is on file for O=C1NC(O)=NC1(c1ccccc1)c1ccccc1 ?
Result: 1

----------
Documented normalized growth across a set of compounds
Assay info: chemical genetic growth profiling, strain panel (AID 1159580);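 note: tested at 20 µM; growth read once vehicle control cultures reached saturation at 30 °C; 1 = growth at the plate median or of vehicle wells; lower values mean less growth of the strain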
Study conditions: S. cerevisiae deletion strains, growth OD, locus YEL037C, strain rad23, hits give low values
Out of some 5,500 compounds screened, about 2,000 (36%) were called active. Inconclusive results (about 18%) are left out. Some of the results follow.

Answered examples (2):
N=C(N)N | 0.998 (inactive)
CC(C)NCC(O)COc1ccc(COCCOC(C)C)cc1 (stereo not drawn) | 1.02 (inactive)

Problem: normalized growth for CC(C)=CC1C(C(=O)O)C1(C)C (stereo not drawn) ?
Result: 0.966 (inactive)

----------
Assay info: chemical genetic growth profiling, strain panel (AID 1159580);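 note: tested at 20 µM; growth read once vehicle control cultures reached saturation at 30 °C; 1 = growth at the plate median or of vehicle wells; lower values mean less growth of the strain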
Study conditions: S. cerevisiae deletion strains, growth OD, locus YER015W, strain faa2, hits give low values
The campaign covered roughly 5,500 compounds. About 2,000 (36%) were called active. Roughly 18% stayed inconclusive and do not appear here. This is one part of the list.
Reported normalized growth values are given for each entry in this list.

Solved cases (2 shown):
CC(CCC(=O)O)[C@H]1CCC2C3CC[C@@H]4C[C@H](O)CC[C@]4(C)C3C=C[C@@]21C (stereo partly specified) | 1.01 (inactive)
COc1ccc(C2Sc3ccccc3N(CCN(C)C)C(=O)C2OC(C)=O)cc1 (stereo unspecified) | 0.962 (inactive)

Problem: Which value of normalized growth has been reported for CN(C)[C@@H]1C(=O)C(C(=O)NCN2CCCC2)=C(O)[C@@]2(O)C(=O)C3=C(O)c4c(O)cccc4[C@@](C)(O)[C@H]3C[C@@H]12 in the records?
Result: 0.99 (inactive)

Problem: Which normalized growth value belongs to CC(Cc1cccc(C(F)(F)F)c1)NCCOC(=O)c1ccccc1 (stereo unspecified) ?
Result: 0.899 (active)

Problem: If you can, please state the reported normalized growth value of COc1ccccc1OCC(O)CO (stereo unspecified) .
Result: 1.02 (inactive)

----------
Assay info: chemical genetic growth profiling, strain panel (AID 1159580);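 note: tested at 20 µM; growth read once vehicle control cultures reached saturation at 30 °C; 1 = growth at the plate median or of vehicle wells; lower values mean less growth of the strain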
Study conditions: S. cerevisiae deletion strains, growth OD, locus YGR252W, strain gcn5, hits give low values
The whole screen tested about 5,500 compounds, of which about 2,000 (36%) were called active. Not shown: some 18% with an inconclusive outcome. The list shows a part of the results.
Item-by-item account of normalized growth
Please reply with the number alone, leaving off any unit.

// below: answered compounds
Cc1cc(=O)[nH]c(=S)[nH]1 | 0.978
C=C(C)C1CCC(C)(O)C2CC3OC3(C)C2C1 (centres undefined) | 1.01
CCC(C)C(=O)OC1[C@@H]2CC3=C4CC(=O)O[C@@H](c5ccoc5)[C@]4(C)CCC3[C@@](C)(C2=O)[C@@H](CC(=O)OC)C1(C)C (some centres undefined) | 1.02
Nc1ccc(S(=O)(=O)NC(=O)c2ccccc2)cc1 | 0.997
CC(=O)N[C@@H](Cc1c[nH]c2ccccc12)C(N)=O | 1.02
C/C1=C/CC(C)(C)/C=C/C/C(C)=C/CC1 | 1.01
O=C(O)c1ccc(S(=O)(=O)N(Cl)Cl)cc1 | 0.971
O=C(NCO)c1cccnc1 | 1.01

Attention now shifts to the item below.
Problem: Fill blank: measured normalized growth of the compound CC(C)=CCCC(C)[C@@H]1CC[C@]2(C)C3=C(CC[C@@]12C)C1(C)CC[C@H](O)C(C)(C)C1CC3 (some centres undefined) is ____.
Result: 0.985
